// values below are reported inhibition at 1 µM
# Target or test system: human recombinant adrenergic α1D receptor (Homo sapiens)
# Construct: expressed in transfected cells; host or cells: HEK-293 cells
# Sequence (P25100 1-572): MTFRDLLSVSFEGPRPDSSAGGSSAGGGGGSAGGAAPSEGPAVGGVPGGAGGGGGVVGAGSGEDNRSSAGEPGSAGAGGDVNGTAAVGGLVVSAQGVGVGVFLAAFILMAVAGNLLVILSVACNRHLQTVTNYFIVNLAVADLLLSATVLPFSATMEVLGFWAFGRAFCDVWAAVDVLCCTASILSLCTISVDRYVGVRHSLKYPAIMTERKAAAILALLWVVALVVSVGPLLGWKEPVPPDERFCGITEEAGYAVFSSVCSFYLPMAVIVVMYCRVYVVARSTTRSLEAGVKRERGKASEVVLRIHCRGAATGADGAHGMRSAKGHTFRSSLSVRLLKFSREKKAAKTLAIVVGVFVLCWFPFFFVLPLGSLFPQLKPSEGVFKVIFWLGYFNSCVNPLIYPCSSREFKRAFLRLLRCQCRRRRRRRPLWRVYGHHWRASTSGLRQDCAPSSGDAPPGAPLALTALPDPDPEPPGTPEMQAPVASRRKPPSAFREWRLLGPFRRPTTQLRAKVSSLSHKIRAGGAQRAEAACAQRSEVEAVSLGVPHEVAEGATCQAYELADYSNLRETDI
# Assay explanation: Adrenergic α1D radioligand binding ([3H]Prozosin)
# Experimental context: 1 μM; read-out: Adrenergic α1D, inhibition of ligand binding (1 μM)

>>> result("Cc1ccc(CCn2c3c(c4ccccc42)[C@@H]2CC[C@H](C3)N2C)cn1")
"1%"
>>> result("CN1C2CCC1c1c(n(CCc3cccnc3)c3ccc(Cl)cc13)C2 (stereo not drawn)")
"54%"
>>> result("Cc1ccc2c(c1)c1c(n2CCc2ccc(C(F)(F)F)nc2)CC2CCC1N2C (stereo not drawn)")
"62%"
>>> result("CN1C2CCC1c1c(n(C#Cc3ccc(Cl)cc3)c3ccc(Cl)cc13)C2 (stereo not drawn)")
"27%"

*Q* Quick one: inhibition at 1 µM for CN1C2CCC1c1c(n(CCC(=O)N3CCCC3)c3ccc(Cl)cc13)C2 (stereo not drawn) ?
*A* 21%

*Q* Can you share its inhibition at 1 µM? I mean this compound: CN1C2CCC1c1c(n(CCCc3ccc(Cl)cc3)c3ccc(Cl)cc13)C2 (stereo not drawn)
*A* 11%

*Q* inhibition at 1 µM lookup needed for Cc1ncc(CCn2c3c(c4cc(Cl)ccc42)C2CCC(C3)N2C)cn1 (stereo not drawn) , thanks.
*A* 40%

*Q* Give the measured inhibition at 1 µM of Cc1ccc(C#Cn2c3c(c4cc(Cl)ccc42)C2CCC(C3)N2C)cn1 (stereo not drawn) .
*A* 65%

*Q* # get_value(readout='inhibition at 1 µM', item= CN1C2CCC1c1c(n(CCCc3ccc(C(F)(F)F)nc3)c3ccc(Cl)cc13)C2 (stereo not drawn) )
*A* 12%

*Q* inhibition at 1 µM for COc1ccc(CCn2c3c(c4cc(C)ccc42)C2CCC(C3)N2C)cc1 (stereo not drawn) ?
*A* 80%
